- Tested on: biotinyl-Val-oxazolone
- method summary: self-aminoacylation, catalytic enhancement (BVO) (fold over background); higher = more active; k-Seq, kA / k0A0; sequences stand for … in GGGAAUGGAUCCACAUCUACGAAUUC…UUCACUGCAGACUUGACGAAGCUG
Variants at the floor of the assay were thinned out.
Use Met when the recorded self-aminoacylation is no lower than 4; use Not met when it is lower.

Req: Decide: self-aminoacylation of AAUCACCUAGGUCAUCGGGAG [Fam2.2 aminoacylation ribozyme variant] >= 4?
Resp: Not met

Req: // query: AUUCACCUAGGGCACCGGGUG [Fam2.2 aminoacylation ribozyme variant]
Resp: Not met

Req: Same question for AUUACCCUGUUAAUCGAGUGA [Fam2.1 aminoacylation ribozyme variant] please.
Resp: Met

Req: Would you kindly repeat that for AAGUUUGAUAAUAGUCACAAG [Fam3.1 aminoacylation ribozyme variant] ?
Resp: Not met

Req: Same thing, different sequence: CCUCAAUUCAAGCAAUCGGUC [Fam1B.1 aminoacylation ribozyme variant]
Resp: Not met

Req: Also CUACUUCGAACCAUCGGUCUG [Fam1A.1 aminoacylation ribozyme variant] , if possible.
Resp: Not met

Req: Follow-up item: AUUCACCUAGGUCAUCGGAUA [Fam2.2 aminoacylation ribozyme variant]
Resp: Not met

Req: Do the same for AUACACUUCAAGCAAUCGGUC [Fam1B.1 aminoacylation ribozyme variant] please
Resp: Not met

Req: Would you kindly repeat that for AUACACCGAGGUCAUCGGGUG [Fam2.2 aminoacylation ribozyme variant] ?
Resp: Met

###

- Tested on: biotinyl-Trp-oxazolone
- method summary: self-aminoacylation, catalytic enhancement (BWO) (fold over background); higher = more active; k-Seq, kA / k0A0; sequences stand for … in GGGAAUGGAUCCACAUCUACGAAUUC…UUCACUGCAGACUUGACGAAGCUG
Variants at the floor of the assay were thinned out.
test readout: self-aminoacylation

Req: Entry under review: ACUACCCUGGUCUUCGAGUGA [Fam2.1 aminoacylation ribozyme variant] . Reported self-aminoacylation?
Resp: 5.15

Req: AUUACCCUGGCCAUCCAGUGA [Fam2.1 aminoacylation ribozyme variant] , same question.
Resp: 7.75

Req: For AUUCAUCUAGGUCAUCUGGUG [Fam2.2 aminoacylation ribozyme variant] then?
Resp: 2.86

Req: Here is the next sequence: AUUACCGUGGUCAACGAGUGA [Fam2.1 aminoacylation ribozyme variant]
Resp: 9.2

Req: Next: CCUCACUUCAAGCAAUCGGUU [Fam1B.1 aminoacylation ribozyme variant]
Resp: 6.83

Req: Try this sequence too: AAGUUUGCUAAGAGUCGCAAA [Fam3.1 aminoacylation ribozyme variant]
Resp: 1.12

Req: Try the sequence AGUACCCUGGUCAUCGCGUGA [Fam2.1 aminoacylation ribozyme variant]
Resp: 20.5

Req: Another sequence: AAGUUUGCUAAUAGUGGCUAG [Fam3.1 aminoacylation ribozyme variant]
Resp: 0.748

Req: Subsequent entry: ACUACCCUGGUCACCGAGUGA [Fam2.1 aminoacylation ribozyme variant]
Resp: 9.34

###

- System: biotinyl-Trp-oxazolone
- method summary: self-aminoacylation, catalytic enhancement (BWO) (fold over background); higher = more active; k-Seq, kA / k0A0; sequences stand for … in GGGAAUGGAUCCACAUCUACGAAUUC…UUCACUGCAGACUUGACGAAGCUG
Fewer inactive variants are shown than the library holds.
Record form. Attribute: self-aminoacylation. Fill in for each entry.
Enter the number alone.

Req: Hi! What's the reported self-aminoacylation for CUACUUCAAACAACGGGUCUG [Fam1A.1 aminoacylation ribozyme variant] on biotinyl-Trp-oxazolone?
Resp: 0.697

Req: Can you check AUUACUCUGGUCAUCGAGGGA [Fam2.1 aminoacylation ribozyme variant] next?
Resp: 2.13

Req: Please answer likewise for AAUACCCUGGUGAUCGAGUGA [Fam2.1 aminoacylation ribozyme variant]
Resp: 6.66

Req: Next entry: AUGUUUGCCAAUAGUCGCAAG [Fam3.1 aminoacylation ribozyme variant]
Resp: 1.15

Req: CUACUUCAAUCAAUCGGUCGG [Fam1A.1 aminoacylation ribozyme variant] ?
Resp: 12.2

Req: Repeat with AUUACCCUCGUCUUCGAGUGA [Fam2.1 aminoacylation ribozyme variant]
Resp: 7.17

Req: Can you check AUUACCUUGGUCAUCGAGUCA [Fam2.1 aminoacylation ribozyme variant] next?
Resp: 0.599

Req: Likewise for CCACACUUCAAGCAAUCGGAU [Fam1B.1 aminoacylation ribozyme variant] ?
Resp: 1.63

Req: Please do the same for AAGUAUGCUAAUAAUCGCAAG [Fam3.1 aminoacylation ribozyme variant] as well.
Resp: 1.39
